target: Neuronal acetylcholine receptor subunit alpha-7 (Rattus norvegicus) (UniProt Q05941); experiment: Displacement of [3H]MLA from alpha-7 nAChR in rat brain membrane at 100 uM; type: cell membranes
Sequence (Q05941 whole entry): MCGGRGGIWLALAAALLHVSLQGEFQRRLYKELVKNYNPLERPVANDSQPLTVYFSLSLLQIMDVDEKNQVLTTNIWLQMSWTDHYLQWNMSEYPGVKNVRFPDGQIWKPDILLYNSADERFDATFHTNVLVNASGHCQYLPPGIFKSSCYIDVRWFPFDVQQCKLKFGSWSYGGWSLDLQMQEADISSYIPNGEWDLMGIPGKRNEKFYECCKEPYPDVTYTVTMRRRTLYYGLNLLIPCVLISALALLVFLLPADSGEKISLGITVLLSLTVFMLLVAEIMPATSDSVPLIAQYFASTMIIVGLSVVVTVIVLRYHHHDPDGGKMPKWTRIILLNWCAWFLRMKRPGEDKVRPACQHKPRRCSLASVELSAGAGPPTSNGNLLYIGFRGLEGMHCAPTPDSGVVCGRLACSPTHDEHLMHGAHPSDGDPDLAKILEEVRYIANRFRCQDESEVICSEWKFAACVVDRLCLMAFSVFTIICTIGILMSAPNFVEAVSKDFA
Reported inhibition values are given for each entry in this list.
# number only, unit % dropped from output

Please review the following examples before continuing.
[[record]]
sample_smiles = "Cc1cc[n+](CCCC#Cc2cc(C#CCCC[n+]3ccc(C)c(C)c3)cc(C#CCCC[n+]3ccc(C)c(C)c3)c2)cc1C"
tested_system = "Neuronal acetylcholine receptor subunit alpha-7 (Rattus norvegicus) (UniProt Q05941)"
units_text = "%"
reading = 1.8

[[record]]
sample_smiles = "CN1CCC[C@H]1c1ccc[n+](CCCC#Cc2cc(C#CCCC[n+]3cccc([C@@H]4CCCN4C)c3)cc(C#CCCC[n+]3cccc([C@@H]4CCCN4C)c3)c2)c1.[Br-].[Br-].[Br-]"
tested_system = "Neuronal acetylcholine receptor subunit alpha-7 (Rattus norvegicus) (UniProt Q05941)"
units_text = "%"
reading = 4.2


Any idea what inhibition was measured for Cc1cc[n+](CCCC#Cc2cc(C#CCCC[n+]3ccc(C)cc3)cc(C#CCCC[n+]3ccc(C)cc3)c2)cc1 ?
0

For c1ccc(-c2ccc[n+](CCCCCc3cc(CCCCC[n+]4cccc(-c5ccccc5)c4)cc(CCCCC[n+]4cccc(-c5ccccc5)c4)c3)c2)cc1 then?
19

For CCCCc1ccc[n+](CCCCCc2cc(CCCCC[n+]3cccc(CCCC)c3)cc(CCCCC[n+]3cccc(CCCC)c3)c2)c1 then?
4.4

---

biological target: Neuronal acetylcholine receptor subunit alpha-7 (Rattus norvegicus) (UniProt Q05941); assay: Displacement of [3H]MLA from alpha-7 nAChR in rat brain membrane at 100 uM; type: cell membranes
Reported inhibition values are given for each entry in this list.
# number only, unit % dropped from output

[[record]]
sample_smiles = "Cc1cccc[n+]1CCCC#Cc1cc(C#CCCC[n+]2ccccc2C)cc(C#CCCC[n+]2ccccc2C)c1.[Br-].[Br-].[Br-]"
reading = 0


Any idea what inhibition was measured for CN1CCC[C@H]1c1ccc[n+](CCCCCc2cc(CCCCC[n+]3cccc([C@@H]4CCCN4C)c3)cc(CCCCC[n+]3cccc([C@@H]4CCCN4C)c3)c2)c1 ?
7.9

For c1ccc2c[n+](CCCCCc3cc(CCCCC[n+]4ccc5ccccc5c4)cc(CCCCC[n+]4ccc5ccccc5c4)c3)ccc2c1 then?
2.5

For Cc1ccc[n+](CCCCCc2cc(CCCCC[n+]3cccc(C)c3)cc(CCCCC[n+]3cccc(C)c3)c2)c1.[Br-].[Br-].[Br-] then?
1.2

---

biological target: Neuronal acetylcholine receptor; alpha4/beta2 (Rattus norvegicus) (UniProt P09483+P12390); assay: Displacement of [3H]NIC from alpha-4-beta-2 nAChR in rat brain membrane at 100 uM; format: cell membranes
MEASUREMENT_TYPE: inhibition (%)
# number only, unit % dropped from output

Please review the following examples before continuing.
[[record]]
sample_smiles = "CN1CCC[C@H]1c1ccc[n+](CCCCCc2cc(CCCCC[n+]3cccc([C@@H]4CCCN4C)c3)cc(CCCCC[n+]3cccc([C@@H]4CCCN4C)c3)c2)c1"
measurement_type = "inhibition"
reading = 81

[[record]]
sample_smiles = "Cc1cc[n+](CCCCCc2cc(CCCCC[n+]3ccc(C)c(C)c3)cc(CCCCC[n+]3ccc(C)c(C)c3)c2)cc1C"
measurement_type = "inhibition"
reading = 9.3


Any idea what inhibition was measured for CCCCc1ccc[n+](CCCC#Cc2cc(C#CCCC[n+]3cccc(CCCC)c3)cc(C#CCCC[n+]3cccc(CCCC)c3)c2)c1 ?
6.8

For Cc1ccc[n+](CCCCCc2cc(CCCCC[n+]3cccc(C)c3)cc(CCCCC[n+]3cccc(C)c3)c2)c1.[Br-].[Br-].[Br-] then?
14

For Cc1ccc[n+](CCCC#Cc2cc(C#CCCC[n+]3cccc(C)c3)cc(C#CCCC[n+]3cccc(C)c3)c2)c1.[Br-].[Br-].[Br-] then?
10

For Cc1cc[n+](CCCCCc2cc(CCCCC[n+]3ccc(C)cc3)cc(CCCCC[n+]3ccc(C)cc3)c2)cc1 then?
6

For CCCCc1ccc[n+](CCCCCc2cc(CCCCC[n+]3cccc(CCCC)c3)cc(CCCCC[n+]3cccc(CCCC)c3)c2)c1 then?
6.2

For c1ccc2c[n+](CCCCCc3cc(CCCCC[n+]4ccc5ccccc5c4)cc(CCCCC[n+]4ccc5ccccc5c4)c3)ccc2c1 then?
8.4

For c1ccc(-c2ccc[n+](CCCCCc3cc(CCCCC[n+]4cccc(-c5ccccc5)c4)cc(CCCCC[n+]4cccc(-c5ccccc5)c4)c3)c2)cc1 then?
14

---

molecular target: Neuronal acetylcholine receptor; alpha4/beta2 (Rattus norvegicus) (UniProt P09483+P12390); test: Displacement of [3H]NIC from alpha-4-beta-2 nAChR in rat brain membrane at 100 uM; type: cell membranes
MEASUREMENT_TYPE: inhibition (%)
# number only, unit % dropped from output

Please review the following examples before continuing.
[[record]]
sample_smiles = "c1ccc2c(c1)ccc[n+]2CCCCCc1cc(CCCCC[n+]2cccc3ccccc32)cc(CCCCC[n+]2cccc3ccccc32)c1"
tested_system = "Neuronal acetylcholine receptor; alpha4/beta2 (Rattus norvegicus) (UniProt P09483+P12390)"
reading = 5.7

[[record]]
sample_smiles = "C(#Cc1cc(C#CCCC[n+]2cccc3ccccc32)cc(C#CCCC[n+]2cccc3ccccc32)c1)CCC[n+]1cccc2ccccc21"
tested_system = "Neuronal acetylcholine receptor; alpha4/beta2 (Rattus norvegicus) (UniProt P09483+P12390)"
reading = 7

[[record]]
sample_smiles = "C(#Cc1cc(C#CCCC[n+]2cccc(-c3ccccc3)c2)cc(C#CCCC[n+]2cccc(-c3ccccc3)c2)c1)CCC[n+]1cccc(-c2ccccc2)c1"
tested_system = "Neuronal acetylcholine receptor; alpha4/beta2 (Rattus norvegicus) (UniProt P09483+P12390)"
reading = 15


Consider the record given below.
Any idea what inhibition was measured for Cc1cc[n+](CCCC#Cc2cc(C#CCCC[n+]3ccc(C)c(C)c3)cc(C#CCCC[n+]3ccc(C)c(C)c3)c2)cc1C ?
4
